Mean fluorescence intensity for assorted binders
Molecular target: T1, human TIM-3 on CHOK1 stable cell line (CHOK1-hTIM-3) (human, UniProt Q8TDQ0 22-301)
T1 sequence: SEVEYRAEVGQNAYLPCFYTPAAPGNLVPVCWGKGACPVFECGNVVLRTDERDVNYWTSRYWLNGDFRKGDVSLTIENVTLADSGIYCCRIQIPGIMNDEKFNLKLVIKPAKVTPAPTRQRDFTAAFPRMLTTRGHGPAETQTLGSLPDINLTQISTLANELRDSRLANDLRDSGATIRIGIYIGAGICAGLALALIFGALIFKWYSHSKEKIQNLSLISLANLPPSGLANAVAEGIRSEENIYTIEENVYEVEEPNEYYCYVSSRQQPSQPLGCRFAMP
Test: FACS, CHOK1-hTIM-3 cells, 0.32 nM antibody
Kindly provide the number alone.

The recorded Mean fluorescence intensity for 7A4F10 fully human TIM-3 antibody (human IgG4, kappa) (antibody, V domains shown) VH: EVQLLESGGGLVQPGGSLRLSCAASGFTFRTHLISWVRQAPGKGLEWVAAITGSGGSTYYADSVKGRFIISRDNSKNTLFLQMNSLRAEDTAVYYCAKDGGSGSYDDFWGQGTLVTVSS VL: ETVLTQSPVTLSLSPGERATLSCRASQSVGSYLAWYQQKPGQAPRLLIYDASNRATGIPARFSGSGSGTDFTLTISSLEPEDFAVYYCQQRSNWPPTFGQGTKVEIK is 90.1

The recorded Mean fluorescence intensity for 134H3G6 fully human TIM-3 antibody (human IgG4, kappa) (antibody, V domains shown) VH: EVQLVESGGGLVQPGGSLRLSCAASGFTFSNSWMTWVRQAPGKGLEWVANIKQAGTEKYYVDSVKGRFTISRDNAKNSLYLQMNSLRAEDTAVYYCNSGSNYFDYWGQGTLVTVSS VL: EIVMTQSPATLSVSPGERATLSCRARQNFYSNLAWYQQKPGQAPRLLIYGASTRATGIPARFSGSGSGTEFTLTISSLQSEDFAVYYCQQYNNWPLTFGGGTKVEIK is 96.6
